Consider the following binders; for each one, report its pKd.
target: HpNikR N32A (Helicobacter pylori G27, UniProt A1YSQ9 1-148, N32A); test: fluorescence anisotropy; apo (no Ni); FA: 5 nM DNA, 20 mM Tris pH 7.6, 100 mM NaCl, 3 mM MgSO4, temperature not stated (Ni loading 1.2 eq NiSO4 per monomer at RT). EMSA: 20 mM Tris pH 7.5, 100 mM KCl, 3 mM MgCl2, 0.1% IGEPAL, 5% glycerol, 0.1 mg/ml herring sperm DNA, RT; gel with 800 uM NiSO4 at 4 C; conditions: protein: recombinant; tags: none stated; chain copies: 4; label: fluorescein on internal thymine (T14 of strand 1); blunt
As a rule, pKd stands for the negative log10 of the concentration, concentration in M.

Exercise: For the binder shown here, ureA-perf promoter 32 bp (dsDNA) DNA 1: ATATATTATTAATTCATTTTAAATAATAATTA DNA 2: TAATTATTATTTAAAATGAATTAATAATATAT , give the reported pKd.
Solution: 5.72

Exercise: For the binder shown here, ureA promoter 32 bp (FA) (dsDNA) DNA 1: ATATAACACTAATTCATTTTAAATAATAATTA DNA 2: TAATTATTATTTAAAATGAATTAGTGTTATAT , give the reported pKd.
Solution: 5.80
